Measured values drawn from paper PMC10397247 for this set.

- target: T1, 4H2253-AA
- T1 chain: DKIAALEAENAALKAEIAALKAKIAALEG
- method-description: two-hybrid library CCmax;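 further: natural log of median RNA to DNA barcode read ratio; higher means stronger binding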
- stated-conditions: mean of both orientations
reported-endpoint: interaction score
Please state the value as a number alone, without comment.

Query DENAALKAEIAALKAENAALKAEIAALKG [4H1626-AA] yields interaction score of -1.52

Recorded result, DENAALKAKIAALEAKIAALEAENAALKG [4H1828-AA] , interaction score: -1.32

interaction score for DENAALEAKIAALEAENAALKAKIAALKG [4H1310-AA] is -0.556

// recorded interaction score for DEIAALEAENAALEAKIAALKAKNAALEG [4H175-AA] : -0.981
